Measured thrombin peak (nM) at 50.0 nM, FVIII-neutralised plasma + 2 nM TFPIα by item
molecular target: human TFPI alpha (full-length TFPIα) (human, UniProt P10646 29-304); test: cell-based or functional assay
Just the number in nM, nothing appended.

Give the measured thrombin peak (nM) at 50.0 nM, FVIII-neutralised plasma + 2 nM TFPIα of mAb 2021 (antibody, human IgG4 S228P, kappa, V domains shown) VH: EVQLVESGGGLVKPGGSLRLSCAASGFTFSNYAMSWVRQTPEKRLEWVATISRSGSYSYFPDSVQGRFTISRDNAKNSLYLQMNSLRAEDTAVYYCARLGGYDEGDAMDSWGQGTTVTVSS VL: DIVMTQTPLSLSVTPGQPASISCKSSQSLLESDGKTYLNWYLQKPGQSPQLLIYLVSILDSGVPDRFSGSGSGTDFTLKISRVEAEDVGVYYCLQATHFPQTFGGGTKVEIKR .
73.4

Give the measured thrombin peak (nM) at 50.0 nM, FVIII-neutralised plasma + 2 nM TFPIα of Fab 0094 (Fab fragment of mAb 2007) (Fab, V domains shown, KPI-2 specific) VH: EVQLVESGGGLVKPGGSLRLSCAASGFTFSNYAMSWVRQAPGKGLEWVSTISRSGSYSYYPDSVKGRFTISRDNAKNSLYLQMNSLRAEDTAVYYCARLGGYDEGDAMDSWGQGTTVTVSS VL: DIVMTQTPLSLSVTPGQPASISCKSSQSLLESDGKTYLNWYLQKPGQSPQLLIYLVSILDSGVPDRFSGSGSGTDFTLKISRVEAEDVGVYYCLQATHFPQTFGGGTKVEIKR .
18.9

Give the measured thrombin peak (nM) at 50.0 nM, FVIII-neutralised plasma + 2 nM TFPIα of Fab 0095 (Fab fragment of mAb 2014) (Fab, V domains shown, KPI-2 specific) VH: EVQLVESGGGLVKPGGSLRLSCAASGFTFSNYAMSWVRQAPGKGLEWVSTISRSGSYSYYADSVKGRFTISRDNAKNSLYLQMNSLRAEDTAVYYCARLGGYDEGDAMDSWGQGTTVTVSS VL: DIVMTQTPLSLSVTPGQPASISCKSSQSLLESDGKTYLNWLLQRPGESPKLLIYLVSILDSGVPDRFSGSGSGTDFTLKISRVEAEDVGVYYCLQATHFPQTFGGGTKVEIKR .
25.1

Give the measured thrombin peak (nM) at 50.0 nM, FVIII-neutralised plasma + 2 nM TFPIα of Fab 0088 (Fab fragment of mAb 2021) (Fab, V domains shown, free C-terminal cysteine; KPI-2 specific) VH: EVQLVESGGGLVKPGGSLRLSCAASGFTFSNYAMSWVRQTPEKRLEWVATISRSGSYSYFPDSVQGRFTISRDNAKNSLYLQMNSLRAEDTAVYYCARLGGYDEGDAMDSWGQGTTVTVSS VL: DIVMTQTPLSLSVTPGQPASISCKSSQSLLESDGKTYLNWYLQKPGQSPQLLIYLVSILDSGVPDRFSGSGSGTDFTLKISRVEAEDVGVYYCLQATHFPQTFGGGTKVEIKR .
67.7
